meta.source: ChEMBL document CHEMBL1150132

Tested on: P388
Assay: Cytotoxicity against mouse P388 cells after 48 hrs by MTT assay
Format: functional, cell-based
Settings: P388, 48 h
The following compounds are listed with their measured log10(IC50) values.
The base-10 logarithm of IC50, taken with IC50 in nM, is what appears here.

COMPOUND	log10(IC50)
C=C/C=C\[C@H](C)[C@H](OC(N)=O)[C@@H](C)[C@H](O)[C@@H](C)C/C(C)=C\[C@H](C)[C@@H](O)[C@@H](C)/C=C\[C@@H](O)C[C@H](O)[C@H](C)[C@H](O)[C@@H](C)C(=O)OC	1.82

Sample C=C/C=C\[C@H](C)[C@H](O)[C@@H](C)[C@H](O)[C@@H](C)C/C(C)=C\[C@H](C)[C@@H](O)[C@@H](C)/C=C\[C@@H](O)C[C@@H]1OC(=O)[C@H](C)[C@@H](O)[C@H]1C — what was its log10(IC50)?
2.11

Check C=C/C=C\C(C)C(OC(N)=O)C(C)C(O)C(C)/C=C(\C)C1C(C)C(O)C(C)C1/C=C/C[C@@H]1OC(=O)[C@H](C)[C@@H](O)[C@@H]1C (stereo not given in full) too.
3.70

Check C=C/C=C\[C@H](C)[C@H](OC(N)=O)[C@@H](C)[C@H](O)[C@@H](C)C/C(C)=C\[C@H](C)[C@@H](O)[C@@H](C)/C=C\[C@@H](O)C[C@@H]1OC(=O)C[C@@H](O)[C@H]1C too.
2.24

Check C=C/C=C\[C@H](C)[C@H](OC(N)=O)[C@@H](C)[C@H](O)[C@@H](C)C/C(C)=C\[C@H](C)[C@@H](O)[C@@H](C)/C=C\[C@@H](O)C[C@@H]1OC(=O)[C@@H](C)[C@@H](O)[C@H]1C too.
2.13
